Run Description: in vivo
Stated Conditions: mouse, ip
Below, each entry is listed with its recorded LD50.

These solved cases illustrate the format of a correct answer.
compound="Cc1cc(OCCN(C)CC2COc3ccccc3O2)c(C(C)C)cc1O (stereo not shown)" readout_label=LD50 recorded_result="350 mg/kg"
compound="CC(=O)Oc1cc(C(C)C)c(OCCN(C)C)cc1C [Moxisylyte, reference compound]" readout_label=LD50 recorded_result="73 mg/kg"

Query: Could you please provide reported LD50 for CC(=O)Oc1cc(C(C)C)c(OCCN(C)CC2COc3ccccc3O2)cc1C (stereo not shown) ? Thanks!
Reply: 600 mg/kg

Query: Provide measured LD50 value, entry: COc1cccc(OC)c1OCCN(C)CCOc1cc(C)c(O)cc1C(C)C
Reply: 66.2 mg/kg

Query: # return recorded LD50 for input Cc1cc(OCCN(C)CCCc2ccccc2)c(C(C)C)cc1O
Reply: 154 mg/kg

Query: Retrieve LD50 measured for Cc1cc(OCCNCCCc2ccccc2)c(C(C)C)cc1O and print it.
Reply: 84.6 mg/kg

Query: Fill in LD50 for record COc1cc(C(C)C)c(OCCN(C)CCOc2ccccc2)cc1C
Reply: 200 mg/kg

Query: # return recorded LD50 for entry COc1cc(C(C)C)c(OCCN(C)CCOc2c(OC)cccc2OC)cc1C
Reply: 93 mg/kg

Query: Please list LD50 recorded for the compound COc1cc(C(C)C)c(OCCNCCOc2ccccc2)cc1C
Reply: 81 mg/kg

Query: Give recorded LD50. Cc1cc(OCCNCC2COc3ccccc3O2)c(C(C)C)cc1O (stereo not shown)
Reply: 174 mg/kg
